Listed binders paired with reported Fold change-apparentKD (against IL-10 ORF)
Molecular target: T1, IL-10 receptors R1 and R2 on HEK-Blue IL-10 reporter cells (UniProt Q13651 22-578; Q08334 20-325, limits assumed)
T1 sequence (looked up) 1: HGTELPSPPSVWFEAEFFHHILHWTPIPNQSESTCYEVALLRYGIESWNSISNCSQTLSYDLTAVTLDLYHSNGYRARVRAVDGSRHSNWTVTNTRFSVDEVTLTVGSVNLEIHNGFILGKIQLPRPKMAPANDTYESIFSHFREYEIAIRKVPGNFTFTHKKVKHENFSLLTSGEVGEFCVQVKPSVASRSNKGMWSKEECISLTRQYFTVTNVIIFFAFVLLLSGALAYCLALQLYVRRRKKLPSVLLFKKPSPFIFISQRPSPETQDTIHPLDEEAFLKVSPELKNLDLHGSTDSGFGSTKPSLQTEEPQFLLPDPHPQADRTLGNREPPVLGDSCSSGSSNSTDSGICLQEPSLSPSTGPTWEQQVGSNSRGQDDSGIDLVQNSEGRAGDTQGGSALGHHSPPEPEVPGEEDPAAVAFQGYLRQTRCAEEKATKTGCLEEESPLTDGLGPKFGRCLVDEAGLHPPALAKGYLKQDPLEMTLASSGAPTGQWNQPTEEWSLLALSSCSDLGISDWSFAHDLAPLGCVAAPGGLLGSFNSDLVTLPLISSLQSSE
T1 sequence (looked up) 2: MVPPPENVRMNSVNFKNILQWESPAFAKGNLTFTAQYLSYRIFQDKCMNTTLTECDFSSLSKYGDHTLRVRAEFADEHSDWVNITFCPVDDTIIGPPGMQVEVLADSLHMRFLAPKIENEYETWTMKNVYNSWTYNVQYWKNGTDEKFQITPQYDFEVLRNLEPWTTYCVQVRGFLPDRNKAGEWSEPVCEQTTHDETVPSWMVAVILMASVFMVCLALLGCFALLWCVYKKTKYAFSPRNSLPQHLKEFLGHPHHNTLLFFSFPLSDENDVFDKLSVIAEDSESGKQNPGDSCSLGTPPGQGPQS
Assay: cell-based or functional assay
Report the value in fold with no unit label.

{"columns": ["binder", "unitInfo", "quantitativeResult"],
 "data": [
  ["MutSC2 (MutSC1 with the Mut3 point mutations) (ligand) MTQSENSCTHFPGILPNMLRDLREAFKRVKTFFQMKDQLDSLLLKESLLEDFKGYLGCQALSEMIQFYLEEVMPQAENQDPDIKAHVISLGENLNTLRLRLRRCHRFLPCENKSKAVEQVKNAFNKLQEKGIYKAMSEFDIFINYIEAYMMMNNGGLDYLPNMLRDLREAFKRVKTFFQMKDQLDSLLLKESLLEDFKGYLGCQALSEMIQFYLEEVMPQAENQDPDIKAHVISLGENLNTLRLRLRRNHRFLPCENKSKAVEQVKNAFNKLQEKGIYKAMSEFDIFINYIEAYMMMKIRN", "fold", 16.5],
  ["MutM (engineered monomeric IL-10 with an inserted polyGly loop between Asn116 and Lys117) (ligand) MSPGQGTQSENSCTHFPGNLPNMLRDLRDAFSRVKTFFQMKDQLDNLLLKESLLEDFKGYLGCQALSEMIQFYLEEVMPQAENQDPDIKAHVNSLGENLKTLRLRLRRCHRFLPCENGGGSGGKSKAVEQVKNAFNKLQEKGIYKAMSEFDIFINYIEAYMTMKIRN", "fold", 0.773]
]}

Recall and state the measured Fold change-apparentKD (against IL-10 ORF) for Mut1 (IL-10 D28E, S31R, N45S, T155M) (ligand) MSPGQGTQSENSCTHFPGNLPNMLRDLREAFRRVKTFFQMKDQLDSLLLKESLLEDFKGYLGCQALSEMIQFYLEEVMPQAENQDPDIKAHVNSLGENLKTLRLRLRRCHRFLPCENKSKAVEQVKNAFNKLQEKGIYKAMSEFDIFINYIEAYMMMKIRN . 1.37
